# Lookup of reported selectivity ratio keyed by entry
testDetails: Influence on the bile secretion (choleresis) of the narcotized rat after intraduodenal application
Type: in vivo, rat (male Sprague-Dawley)
conditionDetails: in vivo; Table II; LD50 mouse i.p. / ED50 bile secretion rat i.d.; read-out: TQ (LD50/ED50), bile secretion

| molecule | boundType | selectivity ratio |
| --- | --- | --- |
| Cc1cccc(C)c1N(CCCC(=O)O)C(=O)CCCN(C(=O)c1ccc(Cl)cc1)c1c(C)cccc1C | = | 43 |
| COc1ccc(N(CCCC(=O)O)C(=O)C(C)N(C(=O)c2ccc(Cl)cc2)c2ccc(OC)cc2)cc1 (stereo not drawn) | ≤ | 36 |
| COc1ccc(N(CCCC(=O)O)C(=O)CCN(C(C)=O)c2c(C)cccc2C)cc1 | = | 86 |
| CCc1cccc(C)c1N(CCCC(=O)O)C(=O)CCN(C(C)=O)c1c(C)cccc1C | = | 331 |
| COc1ccc(N(CCCC(=O)O)C(=O)C(C)N(C(=O)c2ccco2)c2ccc(OC)cc2)cc1 (stereo not drawn) | = | 68 |
| COc1ccc(N(CCCC(=O)N(CCCC(=O)O)c2c(C)cccc2C)C(=O)c2ccc(Cl)cc2)cc1 | = | 57 |
| COc1ccc(C(=O)N[C@@H](Cc2ccccc2)C(=O)N(CCCC(=O)O)c2ccc(OC)cc2)cc1 | = | 50 |
| COc1ccc(N(CCCC(=O)O)C(=O)[C@H](CCSC)NC(=O)c2ccc(Cl)cc2)cc1 | = | 280 |
| COc1ccc(N(CCCC(=O)O)C(=O)C(C)N(C(C)=O)c2ccc(OC)cc2)cc1 (stereo not drawn) | = | 60 |
| Cc1cccc(C)c1N(CC(=O)NCCC(=O)O)C(=O)c1ccc(Cl)cc1 | = | 45 |

###

System: pancreatic secretion
testDetails: Influence on the pancreatic secretion of the narcotized rat after intraduodenal application
Assay type: in vivo, rat (male Sprague-Dawley)
conditionDetails: Rattus norvegicus, 0.5 h, read-out: Pancreatic Secretion ED50 (dose which brings about an increase in the pancreatic secretion by a maximum of 50%)
Labelling field: enter YES if recorded ED50 is less than 3 mg/kg. Enter NO if it equals or exceeds that cut-off.

| compound | label |
| --- | --- |
| Cc1cccc(C)c1N(CC(=O)NCCC(=O)O)C(=O)c1ccc(Cl)cc1 | YES |
| COc1ccc(N(CC(=O)NCC(=O)O)C(=O)c2ccc(Cl)cc2)cc1 | NO |
| COc1ccc(N(CCCC(=O)N(CCCC(=O)O)c2c(C)cccc2C)C(=O)c2ccc(Cl)cc2)cc1 | YES |
| Cc1cccc(C)c1N(CCCC(=O)NCCCC(=O)O)C(=O)c1ccc(Cl)cc1 | YES |
| COc1ccc(N(CCCC(=O)O)C(=O)C(C)N(C(=O)c2ccc(Cl)cc2)c2ccc(OC)cc2)cc1 (centres unmarked) | NO |

###

testDetails: Influence on the pancreatic secretion of the narcotized rat after intraduodenal application
Assay type: in vivo, rat (male Sprague-Dawley)
conditionDetails: in vivo; Table I; LD50 mouse i.p. / ED50 pancreatic secretion rat i.d.; read-out: TQ (LD50/ED50), pancreatic secretion
Labelling field: enter y if recorded selectivity ratio is less than 70. Enter n if it equals or exceeds that cut-off.

| molecule | label |
| --- | --- |
| COc1ccc(N(CCCC(=O)N(CCCC(=O)O)c2c(C)cccc2C)C(=O)c2ccc(Cl)cc2)cc1 | n |
| Cc1cccc(C)c1N(CCCC(=O)O)C(=O)CCCN(C(=O)c1ccc(Cl)cc1)c1c(C)cccc1C | n |
| COc1ccc(N(CCCC(=O)O)C(=O)C(C)N(C(=O)c2ccc(Cl)cc2)c2ccc(OC)cc2)cc1 (stereo not shown) | y |
| CCc1cccc(C)c1N(CCCC(=O)O)C(=O)CCN(C(C)=O)c1c(C)cccc1C | n |
| COc1ccc(N(CC(=O)NCCC(=O)O)C(=O)c2ccc(Cl)cc2)cc1 | y |
| COc1ccc(N(CCCC(=O)O)C(=O)CCCN(C(=O)c2ccc(Cl)cc2)c2c(C)cccc2C)cc1 | n |
| COc1ccc(N(CCCC(=O)O)C(=O)CN(C(=O)c2ccc(Cl)cc2)c2ccc(OC)cc2)cc1 | n |
| Cc1cccc(C)c1N(CC(=O)NCCC(=O)O)C(=O)c1ccc(Cl)cc1 | n |
| Cc1cccc(C)c1N(CCCC(=O)NCCCC(=O)O)C(=O)c1ccc(Cl)cc1 | n |
| COc1ccc(C(=O)N[C@@H](Cc2ccccc2)C(=O)N(CCCC(=O)O)c2ccc(OC)cc2)cc1 | y |
